# MEASURED ON: KRAS G12D (Homo sapiens (Human), UniProt P01116+P62937, G12D)
# Sequence (P01116-2 other isoform, or with tags, fused parts or gaps G12D, one chain of several): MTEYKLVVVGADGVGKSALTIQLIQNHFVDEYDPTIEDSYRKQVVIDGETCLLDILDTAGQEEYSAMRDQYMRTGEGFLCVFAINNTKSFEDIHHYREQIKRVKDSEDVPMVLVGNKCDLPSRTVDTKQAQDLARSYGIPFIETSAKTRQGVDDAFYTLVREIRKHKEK
# ASSAY DETAILS: Ras-Raf (BRAF RBD) disruption / FRET / MOA assay, KRAS G12D
# Type: biochemical
# CONDITION DESCRIPTION: Ras-Raf disruption/FRET/MOA assay; class symbols; read-out: KRAS G12D FRET data IC50
# Experimental: The purpose of this biochemical assay is to measure the ability of test compounds to facilitate ternary complex formation between a nucleotide-loaded Ras isoform and cyclophilin A; the resulting ternary complex disrupts binding to a BRAF^RBD construct, inhibiting Ras signaling through a RAF effector. Compound is present in plate wells as a 10-point 3-fold dilution series starting at a final concentration of 30 μM. […]
pIC50: −log10 of the molar value.
TEST READOUT: pIC50

Examples with their reported pIC50 follow.
COMPOUND	REPORTED
CCn1c(-c2cccnc2COC)c2c3cc(ccc31)-c1cc(O)cc(c1)C[C@H](NC(=O)[C@H](C(C)C)N(C)C(=O)[C@H]1CCN(C(=O)C#CCN3[C@H](C)COC[C@@H]3C)C1)C(=O)N1CCC[C@H](N1)C(=O)OCC(C)(C)C2	5.00 to 6.00
C=CC(=O)N1CC[C@H](C(=O)N(C)[C@H](C(=O)N[C@H]2Cc3cc(O)cc(c3)-c3ccc4c(c3)c(c(-c3c(F)cccc3CCOC)n4CC)CC(C)(C)COC(=O)[C@@H]3CCCN(N3)C2=O)C(C)C)C1	< 5.00
C=CC(=O)N1CC[C@H](C(=O)N(C)[C@H](C(=O)N[C@H]2Cc3cccc(c3)-c3ccc4c(c3)c(c(-c3cc(C5=CCN(C)CC5)cnc3[C@H](C)OC)n4CC)CC(C)(C)COC(=O)[C@@H]3CCCN(N3)C2=O)C(C)C)C1 (atropisomer, axis not shown) [Example A514]	< 5.00

Prompt: Name the reported pIC50 value associated with the compound CCn1c(-c2cccnc2COC)c2c3cc(ccc31)-c1cc(O)cc(c1)C[C@H](NC(=O)[C@H](C(C)C)N(C)C(=O)[C@H]1CCN(C(=O)/C=C/CN(C)C)C1)C(=O)N1CCC[C@H](N1)C(=O)OCC(C)(C)C2
Response: 6.00 to 7.00

====

# MEASURED ON: K-Ras G12C (Homo sapiens (Human), UniProt P01116+P62937, G12C)
# Sequence (P01116-2 other isoform, or with tags, fused parts or gaps G12C): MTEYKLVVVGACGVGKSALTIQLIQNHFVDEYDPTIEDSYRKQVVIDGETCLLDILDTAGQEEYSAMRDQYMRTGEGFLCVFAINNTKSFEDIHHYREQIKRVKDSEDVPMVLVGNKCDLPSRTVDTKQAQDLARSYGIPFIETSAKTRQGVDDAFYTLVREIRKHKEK
# Sequence (P62937 whole entry): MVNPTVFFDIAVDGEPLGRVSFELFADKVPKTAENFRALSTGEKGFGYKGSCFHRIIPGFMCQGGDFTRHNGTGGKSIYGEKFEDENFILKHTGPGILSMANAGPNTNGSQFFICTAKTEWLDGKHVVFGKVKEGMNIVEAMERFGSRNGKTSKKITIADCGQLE
# ASSAY DETAILS: Ras-Raf (BRAF RBD) disruption / FRET / MOA assay, KRAS G12C
# Assay type: biochemical
# CONDITION DESCRIPTION: KRAS G12C; Ras-Raf disruption/FRET/MOA assay; read-out: IC50* KRAS G12C FRET data
pIC50: −log10 of the molar value.
Readings of pIC50 for the listed compounds

COMPOUND	pIC50
C=CC(=O)N1CC[C@H](C(=O)N(C)[C@H](C(=O)N[C@H]2Cc3cc(O)cc(c3)-c3ccc4c(c3)c(c(-c3cncs3)n4CC)CC(C)(C)COC(=O)[C@@H]3CCCN(N3)C2=O)C(C)C)C1	6.00 to 7.00
C=CC(=O)N1CC[C@H](C(=O)N(C)[C@H](C(=O)N[C@H]2CC3=NN=C(S3)c3ccc4c(c3)c(c(-c3cccnc3COC)n4CC)CC(C)(C)COC(=O)[C@@H]3CCCN(N3)C2=O)C(C)C)C1	< 5.00
CO[C@@H](C)c1ncccc1-c1c2c3cc(ccc3n1CC(F)(F)F)-c1csc(n1)C[C@H](NC(=O)CCOC1CN(C(=O)C#CC(C)(C)N3CCC3)C1)C(=O)N1CCC[C@H](N1)C(=O)OCC(C)(C)C2 (atropisomer, axis not shown)	7.00 to 8.00

Prompt: Name the reported pIC50 value associated with the compound CO[C@@H](C)c1ncccc1-c1c2c3cc(ccc3n1CC(F)(F)F)-c1nc(nn1C)C[C@H](NC(=O)[C@H](C(C)C)N(C)C(=O)C1(F)CCN(C(=O)C#CC(C)(C)N(C)C)CC1)C(=O)N1CCC[C@H](N1)C(=O)OCC(C)(C)C2 (atropisomer, axis not shown)
Response: > 8.00

====

# MEASURED ON: NRAS G12C (Homo sapiens (Human), UniProt P01111+P62937, G12C)
# Sequence (P01111 whole entry G12C, one chain of several): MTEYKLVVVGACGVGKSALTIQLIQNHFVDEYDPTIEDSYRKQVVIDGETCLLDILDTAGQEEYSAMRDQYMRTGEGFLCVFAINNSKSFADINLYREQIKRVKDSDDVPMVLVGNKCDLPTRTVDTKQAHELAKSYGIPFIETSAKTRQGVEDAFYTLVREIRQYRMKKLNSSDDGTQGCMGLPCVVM
# ASSAY DETAILS: Ras-Raf (BRAF RBD) disruption / FRET / MOA assay, NRAS G12C
# Assay type: biochemical
# CONDITION DESCRIPTION: read-out: IC50* NRAS G12C FRET data
TEST READOUT: IC50

COMPOUND	MEASURED ON	REPORTED
C/C=C(\C)S(=O)(=O)N1CC[C@H](C(=O)N(C)[C@H](C(=O)N[C@H]2Cc3cc(O)cc(c3)-c3ccc4c(c3)c(c(-c3cccnc3[C@H](C)OC)n4CC)CC(C)(C)COC(=O)[C@@H]3CCCN(N3)C2=O)C(C)C)C1 (atropisomer, axis not shown)	NRAS G12C (Homo sapiens (Human), UniProt P01111+P62937, G12C)	100 to 1000 nM

Field: next compound
Prompt: Name the reported IC50 value associated with the compound CCn1c(-c2cccnc2COC)c2c3cc(ccc31)-c1cccc(c1)C[C@H](NC(=O)[C@H](C(C)C)N(C)C(=O)[C@H]1CCN(C(=O)C#CCN(C)C)C1)C(=O)N1CCC[C@H](N1)C(=O)OCC(C)(C)C2 (atropisomer, axis not shown)
Response: 10 to 100 nM

====

# MEASURED ON: KRAS G12S (Homo sapiens (Human), UniProt P01116+P62937, G12S)
# Sequence (P01116-2 other isoform, or with tags, fused parts or gaps G12S): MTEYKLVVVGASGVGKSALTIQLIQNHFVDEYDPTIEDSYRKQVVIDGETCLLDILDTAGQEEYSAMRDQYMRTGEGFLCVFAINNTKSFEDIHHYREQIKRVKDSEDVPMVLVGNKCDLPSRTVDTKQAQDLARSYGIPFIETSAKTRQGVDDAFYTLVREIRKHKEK
# Sequence (P62937 whole entry): as the sequence (P62937 whole entry) above
# ASSAY DETAILS: Ras-Raf (BRAF RBD) disruption / FRET / MOA assay, KRAS G12S
# Assay type: biochemical
# CONDITION DESCRIPTION: Ras-Raf disruption/FRET/MOA assay; class symbols; read-out: KRAS G12S FRET data IC50
TEST READOUT: IC50

Examples with their reported IC50 follow.
MOLECULE	TEST READOUT	REPORTED
CCn1c(-c2cccnc2[C@H](C)OC)c2c3cc(ccc31)-c1csc(n1)C[C@H](NC(=O)[C@H](C(C)C)N(C)C(=O)N1CCCOC13CN(C(=O)C#CC(C)(C)N(C)C)C3)C(=O)N1CCC[C@H](N1)C(=O)OCC(C)(C)C2 (atropisomer, axis not shown)	IC50	> 10000 nM
C=CC(=O)N1CCC(F)(C(=O)N(C)[C@H](C(=O)N[C@H]2C[C@H]3CN(CCO3)c3ccc4c(c3)c(c(-c3cccnc3[C@H](C)OC)n4CC)CC(C)(C)COC(=O)[C@@H]3CCCN(N3)C2=O)C(C)C)CC1 (atropisomer, axis not shown)	IC50	1000 to 10000 nM
CCn1c(-c2cccnc2COC)c2c3cc(ccc31)-c1cc(O)cc(c1)C[C@H](NC(=O)[C@H](C(C)C)N(C)C(=O)[C@H]1CCC(C(=O)/C=C\CN(C)C)C1)C(=O)N1CCC[C@H](N1)C(=O)OCC(C)(C)C2 (stereo partly shown) [Example A161]	IC50	1000 to 10000 nM

Prompt: Name the reported IC50 value associated with the molecule C=CC(=O)N1CC[C@H](C(=O)N(C)[C@H](C(=O)N[C@H]2Cc3cc(O)cc(c3)-c3ccc4c(c3)c(c(-c3cccnc3COCC)n4CC)CC(C)(C)COC(=O)[C@@H]3CCCN(N3)C2=O)C(C)C)C1
Response: 100 to 1000 nM

====

Readings of pIC50 for the listed compounds
# MEASURED ON: K-Ras G12C (Homo sapiens (Human), UniProt P01116+P62937, G12C)
# ASSAY DETAILS: Ras-Raf (BRAF RBD) disruption / FRET / MOA assay, KRAS G12C
# Type: biochemical
# CONDITION DESCRIPTION: KRAS G12C; Ras-Raf disruption/FRET/MOA assay; read-out: IC50* KRAS G12C FRET data
# Procedure: The purpose of this biochemical assay is to measure the ability of test compounds to facilitate ternary complex formation between a nucleotide-loaded Ras isoform and cyclophilin A; the resulting ternary complex disrupts binding to a BRAF^RBD construct, inhibiting Ras signaling through a RAF effector. Compound is present in plate wells as a 10-point 3-fold dilution series starting at a final concentration of 30 μM. […]
pIC50: −log10 of the molar value.

Examples with their reported pIC50 follow.
COMPOUND	pIC50
C=CC(=O)NCCN(C)C(=O)N(C)[C@H](C(=O)N[C@H]1Cc2nc(cs2)-c2ccc3c(c2)c(c(-c2cccnc2[C@H](C)OC)n3CC)CC(C)(C)COC(=O)[C@@H]2CCCN(N2)C1=O)C(C)C (atropisomer, axis not shown)	7.00 to 8.00
C=CC(=O)N1C2CC1CN(C(=O)N(C)[C@H](C(=O)N[C@H]1Cc3nc(cs3)-c3ccc4c(c3)c(c(-c3cccnc3[C@H](C)OC)n4CC)CC(C)(C)COC(=O)[C@@H]3CCCN(N3)C1=O)C(C)C)C2	6.00 to 7.00
C=CC(=O)N1CC[C@H](C(=O)N(C)[C@H](C(=O)N[C@H]2Cc3nc(ns3)-c3ccc4c(c3)c(c(-c3cccnc3[C@H](C)OC)n4CC)CC(C)(C)COC(=O)[C@@H]3CCCN(N3)C2=O)C(C)C)C1 (atropisomer, axis not shown)	5.00 to 6.00

Field: next compound
Prompt: Name the reported pIC50 value associated with the compound C=CC(=O)N(C)[C@@H]1CCCN(C(=O)N(C)[C@H](C(=O)N[C@H]2Cc3nc(cs3)-c3ccc4c(c3)c(c(-c3cccnc3[C@H](C)OC)n4CC)CC(C)(C)COC(=O)[C@@H]3CCCN(N3)C2=O)C(C)C)C1 (atropisomer, axis not shown)
Response: 7.00 to 8.00
